Assay Target: Protein kinase C beta type (Homo sapiens)
Method: Inhibition of N-terminal GST-fused PKCbeta1 (1-671) expressed in baculovirus expression system at 30 uM after 1 hr by off-chip mobility shift assay relative to control
Measure Name: inhibition (%)

Example cases with answers are listed next.
{"Smiles String": "CCCCCCCCCCCCCC[C@@H]1OC[C@@H](N)[C@@H]1O", "Assay Target": "Protein kinase C beta type (Homo sapiens)", "inhibition (%)": 45.1}
{"Smiles String": "CCCCCCCCCCCCC/C=C/[C@@H](O)[C@H](CO)N(C)C", "Assay Target": "Protein kinase C beta type (Homo sapiens)", "inhibition (%)": 68.5}

(I) CCCCCCCCCCCCCC[C@@H]1OC[C@H](N)[C@@H]1O
(II) CCCCCCCCCCCCCC[C@H]1OC[C@@H](N)[C@@H]1O
[ask] Could you check which of I and II has a smaller value for inhibition? Pick one and reply with its label.
[reply] I

###

Assay Target: Sphingosine kinase 1 (Homo sapiens) (UniProt Q9NYA1)
Sequence (Q9NYA1 whole entry, the tested form may be a part): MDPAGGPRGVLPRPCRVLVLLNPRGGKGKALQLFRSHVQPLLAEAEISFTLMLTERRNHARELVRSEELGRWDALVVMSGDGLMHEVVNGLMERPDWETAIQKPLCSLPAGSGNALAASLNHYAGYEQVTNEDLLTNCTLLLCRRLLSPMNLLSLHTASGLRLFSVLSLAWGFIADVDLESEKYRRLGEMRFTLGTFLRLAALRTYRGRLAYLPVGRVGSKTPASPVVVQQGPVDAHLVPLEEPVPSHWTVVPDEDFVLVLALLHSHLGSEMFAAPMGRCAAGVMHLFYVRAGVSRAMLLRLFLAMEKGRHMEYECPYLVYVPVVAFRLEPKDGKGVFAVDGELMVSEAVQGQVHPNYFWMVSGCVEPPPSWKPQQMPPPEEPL
Method: Inhibition of N-terminal GST-fused sphingosine kinase 1 (1-384) expressed in baculovirus expression system assessed as inhibition of sphingosine phosphorylation after 1 hr by off-chip mobility shift assay
Parameters: concentration or dose not given beside the values
Condition Details: concentration not given here
Measure Name: inhibition (%)

(a) CCCCCCCCCCCCC/C=C/[C@@H](O)[C@H](CO)N(C)C
(b) CCCCCCCCCCCCCC[C@@H]1OC[C@H](N)[C@@H]1O
(c) CCCCCCCCCCCCCC[C@H]1OC[C@@H](N)[C@@H]1O
(d) CCCCCCCCCCCCCC[C@@H]1OC[C@@H](N)[C@@H]1O
[ask] With the 4 molecules above, produce a list ordered by ascending inhibition. # list labels per requested ordering
[reply] c, d, b, a

###

Assay Target: Protein kinase C gamma type (Homo sapiens) (UniProt P05129)
Method: Inhibition of N-terminal GST-fused PKCgamma (1-697) expressed in baculovirus expression system at 30 uM after 1 hr by off-chip mobility shift assay relative to control
Measure Name: inhibition (%)

{"Smiles String": "CCCCCCCCCCCCCC[C@@H]1OC[C@H](N)[C@@H]1O", "inhibition (%)": 48.6}
{"Smiles String": "CCCCCCCCCCCCCC[C@@H]1OC[C@@H](N)[C@@H]1O", "inhibition (%)": 48.5}
{"Smiles String": "CCCCCCCCCCCCC/C=C/[C@@H](O)[C@H](CO)N(C)C", "inhibition (%)": 49.2}
{"Smiles String": "CCCCCCCCCCCCCC[C@H]1OC[C@@H](N)[C@@H]1O", "inhibition (%)": 47.6}

###

Assay Target: Protein kinase C zeta type (Homo sapiens) (UniProt Q05513)
Sequence (whole entry): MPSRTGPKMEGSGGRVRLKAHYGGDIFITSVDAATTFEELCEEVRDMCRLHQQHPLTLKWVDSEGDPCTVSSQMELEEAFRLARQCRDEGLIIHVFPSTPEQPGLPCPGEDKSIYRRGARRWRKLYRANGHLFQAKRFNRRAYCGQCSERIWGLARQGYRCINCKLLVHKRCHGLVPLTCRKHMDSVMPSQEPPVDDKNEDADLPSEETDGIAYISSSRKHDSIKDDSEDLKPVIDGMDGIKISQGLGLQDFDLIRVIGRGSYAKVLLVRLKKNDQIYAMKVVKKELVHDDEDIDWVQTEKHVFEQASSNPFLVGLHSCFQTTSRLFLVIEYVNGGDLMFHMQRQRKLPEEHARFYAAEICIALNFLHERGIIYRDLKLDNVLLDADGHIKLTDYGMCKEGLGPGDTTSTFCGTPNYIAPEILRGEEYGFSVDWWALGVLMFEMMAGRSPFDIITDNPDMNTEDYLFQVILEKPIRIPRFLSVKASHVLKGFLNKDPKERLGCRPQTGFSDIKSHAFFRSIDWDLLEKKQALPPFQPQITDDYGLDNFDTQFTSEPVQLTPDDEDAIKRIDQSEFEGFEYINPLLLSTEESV
Method: Inhibition of N-terminal GST-fused PKCzeta (1-592) expressed in baculovirus expression system at 30 uM after 1 hr by off-chip mobility shift assay relative to control
Measure Name: inhibition (%)

{"Smiles String": "CCCCCCCCCCCCCC[C@H]1OC[C@@H](N)[C@@H]1O", "Assay Target": "Protein kinase C zeta type (Homo sapiens) (UniProt Q05513)", "inhibition / %": 99.5}
{"Smiles String": "CCCCCCCCCCCCC/C=C/[C@@H](O)[C@H](CO)N(C)C", "Assay Target": "Protein kinase C zeta type (Homo sapiens) (UniProt Q05513)", "inhibition / %": 99.1}
{"Smiles String": "CCCCCCCCCCCCCC[C@@H]1OC[C@H](N)[C@@H]1O", "Assay Target": "Protein kinase C zeta type (Homo sapiens) (UniProt Q05513)", "inhibition / %": 100}
{"Smiles String": "CCCCCCCCCCCCCC[C@@H]1OC[C@@H](N)[C@@H]1O", "Assay Target": "Protein kinase C zeta type (Homo sapiens) (UniProt Q05513)", "inhibition / %": 99.8}
